targetEntity: human Melanocortin-4 receptor (MC4R) (Homo sapiens (Human), UniProt P32245)
Sequence (P32245 whole entry): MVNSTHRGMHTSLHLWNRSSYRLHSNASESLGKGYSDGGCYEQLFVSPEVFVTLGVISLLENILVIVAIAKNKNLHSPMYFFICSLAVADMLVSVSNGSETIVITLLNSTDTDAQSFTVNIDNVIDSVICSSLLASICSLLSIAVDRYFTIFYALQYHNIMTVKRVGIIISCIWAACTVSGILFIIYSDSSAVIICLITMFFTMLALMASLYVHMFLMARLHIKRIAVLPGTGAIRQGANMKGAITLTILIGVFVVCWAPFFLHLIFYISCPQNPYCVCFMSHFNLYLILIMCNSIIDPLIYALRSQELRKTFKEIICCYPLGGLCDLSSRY
experimentDescription: Functional in vitro MC4R antagonist potency assay (cAMP HTRF in CHO cells)
Format: cell-based
conditionNotes: read-out: Kb (nM) Antagonist geometric mean
readoutName: Kb (nM)

{"molecule": "Cc1nc2c(cc1-c1ncccn1)CC[C@@]1(CCN(C(=O)Cc3ccc(C(F)(F)F)cc3)C1)N2 [Example 73]", "resultUnits": "nM", "Kb": 17}

(1) COc1cc([C@@H](C)C(=O)N2CC[C@@]3(CCc4ccc(C)nc4N3)C2)nc(C)n1 (single isomer, unassigned) [Example 23]
(2) Cc1nc2c(cc1-c1ncccn1)CC[C@@]1(CCN(C(=O)[C@H](C)c3cc(OC(F)F)ncc3F)C1)N2 (single isomer, unassigned) [Example 78]
(3) COc1cc([C@@H](C)C(=O)N2CC[C@@]3(CCc4cc(-c5ncccn5)c(C)nc4N3)C2)c(C(F)(F)F)cn1 (single isomer, unassigned) [Example 41]
(4) COc1cc(OC(F)F)cc([C@@H](C)C(=O)N2CC[C@@]3(CCc4cc(-c5ncccn5)c(C)nc4N3)C2)c1 (single isomer, unassigned) [Example 62]
QUERY: rank_up(items): orders items by reported Kb in ascending numerical order. # the answer lists labels in the order requested
RESULT: 4, 3, 2, 1

---

targetEntity: UniProtKB P32245
experimentDescription: Functional in vitro MC4R antagonist potency assay (cAMP HTRF in CHO cells)
Type: cell-based
conditionNotes: human MC4R in CHO cells, cAMP HTRF, 200 nM aMSH challenge; Kb from IC50 by Leff-Dougall equation; geometric mean; read-out: Kb (nM) Antagonist geometric
readoutName: Kb (nM)

Sample answers from the record:
{"molecule": "COc1cc([C@@H](C)C(=O)N2CC[C@@]3(CCc4cc(-c5cccc(C(F)F)n5)c(C)nc4N3)C2)c(F)cn1 [Example 181]", "Kb / nM": 14}
{"molecule": "Cc1nc2c(cc1-c1ncccn1)CC[C@@]1(CCN(C(=O)[C@H](C)c3ccnc(OC(F)F)c3)C1)N2 (single isomer, unassigned) [Example 195]", "Kb / nM": 3.5}

(a) COc1cc([C@@H](C)C(=O)N2CC[C@@]3(CCc4cc(-c5cccc(OC(F)F)n5)c(C)nc4N3)C2)c(F)cn1 [Example 198]
(b) COc1cc([C@@H](C)C(=O)N2CC[C@@]3(CCc4cc(-c5nc(C(F)F)n(C6CC6)n5)c(C)nc4N3)C2)c(F)cn1 [Example 189]
(c) COc1cc([C@](C)(F)C(=O)N2CC[C@@]3(CCc4cc(-c5ncccn5)c(C)nc4N3)C2)c(F)cn1 (single isomer, unassigned) [Example 148]
QUERY: Rank entries according to their Kb, from the largest number down. # the answer lists labels in the order requested
RESULT: c, a, b
(c: 19 nM, a: 8.3 nM, b: 4.3 nM)

---

targetEntity: hMC4R (Homo sapiens (Human), UniProt P32245)
Sequence (P32245 whole entry): as above
experimentDescription: In vitro binding affinity assay using hMC4R (radioligand competition binding, [125I]-(Nle4, D-Phe7)-α-MSH)
conditionNotes: geometric mean, read-out: Ki (nM) geometric mean
readoutName: Ki (nM)

(A) Cc1nc2c(cc1-c1ncccn1)CC[C@@]1(CCN(C(=O)[C@H](C)c3cc(OC(F)F)ncc3F)C1)N2 (single isomer, unassigned) [Example 77]
(B) Cc1nc2c(cc1-c1ncccn1)CC[C@@]1(CCN(C(=O)C(C)c3ccc(C(F)(F)F)cc3)C1)N2 (single isomer, unassigned) [Example 7]
QUERY: // pick larger Ki from pair: A vs B Write down the label of the entry you select.
RESULT: A
(A: 84 nM, B: 0.62 nM)
